# mass density listing for each entry below
- condition info: 283.15 K; 101.33 kPa; Liquid; Vibrating tube method
quantity name: mass density (kg/m3)

> print(dat)
                       compound  unit.string  recorded.value
1                 CCO [ethanol]        kg/m3          797.97
2          CCCCCO [pentan-1-ol]        kg/m3          821.95
3        CCCCCCCCO [octan-1-ol]        kg/m3          832.11
4  COCCOC [1,2-dimethoxyethane]        kg/m3          877.72

src = the NIST ThermoML archive (doi:10.1021/je301095j)
